# Test system: MCF-7
# ASSAY_NAME: In vitro cell assay (Cell Titer Glo), MCF-7
# Assay type: cell-based, Human
# CONDITION_SUMMARY: Homo sapiens, MCF7; Table 01
Numbered stars: 1 amine (or outer) side, 2 acyl side, 3 side chain; on linkers, the order of the positions; unused ones are H or OH. Square brackets hold non-standard residues; d marks the D form. Peptide text beside a SMILES is read from it. * marks the point of attachment. Butanoyl(3R-OMe,4S-NMe,4-Cy) = CO[C@H](CC(=O)[*:2])[C@H](C1CCCCC1)N(C)[*:1]; Dolaproine = CO[C@@H]([C@@H]1CCCN1)[C@@H](C)C(=O)O; X2 = CO[C@H](CC(=O)[*:2])[C@H](C1CCCC1)N(C)[*:1]; NMeV = CN[C@H](C(=O)O)C(C)C; OtBu = CC(C)(C)O*
MEASUREMENT_TYPE: IC50

1) CN[C@H](C(=O)N[C@H](C(=O)N(C)[C@@H](C1CCCC1)[C@@H](CC(=O)N1CCC[C@H]1[C@H](OC)[C@@H](C)C(=O)N[C@@H](Cc1ccccc1)c1nccs1)OC)C(C)C)C(C)C [Compound 35] ... 914 pM
2) CN[C@H](C(=O)N[C@H](C(=O)N(C)[C@@H](C1CCCCC1)[C@@H](CC(=O)N1CCC[C@H]1[C@H](OC)[C@@H](C)C(=O)N[C@@H](Cc1ccccc1)C(=O)OC(C)(C)C)OC)C(C)C)C(C)C [Compound 38] (H-[NMeV]V[Butanoyl(3R-OMe,4S-NMe,4-Cy)][Dolaproine]F-OtBu) ... 642 pM
3) CN[C@H](C(=O)N[C@H](C(=O)N(C)[C@@H](C1CCCCC1)[C@@H](CC(=O)N1CCC[C@H]1[C@H](OC)[C@@H](C)C(=O)N[C@@H](Cc1ccccc1)c1nccs1)OC)C(C)C)C(C)C [Compound 36] ... 841 pM
4) CN[C@H](C(=O)N[C@H](C(=O)N(C)[C@@H](C1CCCC1)[C@@H](CC(=O)N1CCC[C@H]1[C@H](OC)[C@@H](C)C(=O)N[C@@H](Cc1ccccc1)C(=O)OC(C)(C)C)OC)C(C)C)C(C)C [Compound 37] (H-[NMeV]V[X2][Dolaproine]F-OtBu) ... 456 pM
5) CN[C@H](C(=O)N[C@H](C(=O)N(C)[C@@H](C1CCCCC1)[C@@H](CC(=O)N1CCC[C@H]1[C@H](OC)[C@@H](C)C(=O)N[C@H](C)[C@@H](O)c1ccccc1)OC)C(C)C)C(C)C [Compound 34] ... 1440 pM

Field: next compound
Data request: Tell me its IC50 given CN[C@H](C(=O)N[C@H](C(=O)N(C)[C@@H](C1CCCC1)[C@@H](CC(=O)N1CCC[C@H]1[C@H](OC)[C@@H](C)C(=O)N[C@H](C)[C@@H](O)c1ccccc1)OC)C(C)C)C(C)C [Compound 33] as the entry.
Data returned: 1360 pM
